System: HT-1080 cells
Test: Cellular dose response assay, HT-1080 with and without Fer-1
Format: cell-based, human
Conditions: HT1080, without Fer-1; read-out: IC50 (uM) HT1080
readout.name: IC50 (µM)
Numbers only here, please. The scale is µM.

Below: 3 molecules and their reported IC50.
molecule | IC50 (µM)
Cn1nc(C(=O)NC(C)(C)COC(=O)CCl)c2ccc(-c3ccc4c(c3)OCO4)cc21 | 2.7
COc1ccc(-c2ccc3c(C(=O)NC(C)(C)C(C)OC(=O)CCl)nn(C)c3c2)cc1Cl (racemic) | 3.7
CC(C)Oc1ncc(-c2ccc3c(C(=O)NC(C)(C)COC(=O)CCl)nn(C)c3c2)cn1 | 1.6

# lookup: IC50 of Cn1nc(-c2nnc(C(C)(OC(=O)CCl)C(F)(F)F)o2)c2ccc(-c3ccc4c(c3)OCO4)cc21 (stereo not shown)
9.4

###

System: SK-HEP-1 cells
Assay: Cellular dose response assay, SK-HEP-1
Assay type: cell-based, human
Conditions: Homo sapiens, SK-HEP1, read-out: IC50 (uM) SKHEP1^b
readout.name: IC50 (µM)
Numbers only here, please. The scale is µM.

# lookup: IC50 of Cn1nc(C(=O)NC(C)(C)COC(=O)CCl)c2ccc(Br)cc21 [QW-314]
106

###

Biological target: GPX4 (Homo sapiens, UniProt P36969)
Sequence (P36969 1-170 isoform P36969-2): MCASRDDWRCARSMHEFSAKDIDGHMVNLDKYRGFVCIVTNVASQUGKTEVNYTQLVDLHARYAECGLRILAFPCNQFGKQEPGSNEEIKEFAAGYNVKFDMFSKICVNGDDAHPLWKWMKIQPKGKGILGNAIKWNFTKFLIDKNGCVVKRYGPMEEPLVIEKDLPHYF
Test: GPX4 activity assay in cell lysates (NADPH-coupled)
Assay type: biochemical
Set-up: endogenous in cells; host or cells: A-673 cell lysate
Details: 2.5 μM
readout.name: GPX4% inhibition at 2.5 μM
For clarity, give the value followed by its unit.

Below: 3 molecules and their reported GPX4% inhibition at 2.5 μM.
molecule | target.system | endpoint.value
Cn1nc(C(=O)NCC(C)(C)OC(=O)CCl)c2ccc(-c3ccc(OC(F)(F)F)c(Cl)c3)cc21 [QW-779] | GPX4 (Homo sapiens, UniProt P36969) | 39.1 ± 17.7%
Cn1nc(-n2cc(C(C)(C)COC(=O)CCl)nn2)c2ccc(-c3ccc(OC(F)(F)F)c(Cl)c3)cc21 [QW-677] | GPX4 (Homo sapiens, UniProt P36969) | 33.6 ± 6.3%
COc1c(Cl)cc(-c2ccc3c(-n4cc(C(C)(C)COC(=O)CCl)nn4)nn(C)c3c2)cc1C(F)(F)F [QW-817] | GPX4 (Homo sapiens, UniProt P36969) | 75.3 ± 14.5%

Now for the molecule whose GPX4% inhibition at 2.5 μM we want.
# lookup: GPX4% inhibition at 2.5 μM of COc1c(F)cc(-c2ccc3c(C(=O)NC(C)(C)C(C)(C)OC(=O)CCl)nn(C)c3c2)cc1Cl [QW-796]
4.6 ± 14.4%

###

Molecular target: GPX4 (Homo sapiens)
Experiment: GPX4 activity assay in cell lysates (NADPH-coupled)
Type: biochemical
Set-up: endogenous in cells; host or cells: A-673 cell lysate
Settings: 5 μM
Respond with T for GPX4% inhibition at 5 μM values of 60% and above, F for values below.

compound | target.system | category.label
COc1ccc(CNS(=O)(=O)c2ccc(-c3ccc4c(C(=O)NC(C)(C)COC(=O)CCl)nn(C)c4c3)cc2)cc1 [QW-658] | GPX4 (Homo sapiens) | F
COc1ccc(-c2ccc3c(c2)c(C(=O)NC(C)(C)COC(=O)CCl)nn3C)cc1Cl [QW-584] | GPX4 (Homo sapiens) | F
Cn1nc(C(=O)NC(C)(C)COC(=O)CCl)c2ccc(-c3ccccc3Cl)cc21 [QW-492] | GPX4 (Homo sapiens) | F
C#Cc1ccc(-c2ccc3c(C(=O)NC(C)(C)COC(=O)CCl)nn(C)c3c2)cc1 [QW-555] | GPX4 (Homo sapiens) | F
Cn1nc(C(=O)NC(C)(C)COC(=O)CCl)c2ccc(-c3cccc(OC(=O)CCl)c3)cc21 [QW-510] | GPX4 (Homo sapiens) | T
Cn1nc(C(=O)NC(C)(C)COC(=O)CCl)c2ccc(-c3ccoc3)cc21 [QW-451] | GPX4 (Homo sapiens) | F
Cn1nc(C(=O)NC(C)(C)COC(=O)CCl)c2cc(-c3ccc(N4CCOCC4)c(Cl)c3)ccc21 [QW-585] | GPX4 (Homo sapiens) | F
Cn1nc(C(=O)NC(C)(C)COC(=O)CCl)c2ccc(-c3ccc(N4CCOCC4)cc3)cc21 [QW-547] | GPX4 (Homo sapiens) | T

Kindly determine if GPX4% inhibition at 5 μM recorded for Cn1nc(C(=O)NC(C)(C)COC(=O)CCl)c2ccc(-c3ccc(N4CCOCC4)nc3)cc21 [QW-537] is above or exactly 60%.
F

Kindly determine if GPX4% inhibition at 5 μM recorded for Cn1nc(C(=O)NC(C)(C)COC(=O)CCl)c2ccc(-c3ccc(OC(F)(F)F)cc3)cc21 [QW-469] is above or exactly 60%.
T

Kindly determine if GPX4% inhibition at 5 μM recorded for CC(C)Oc1ccc(-c2ccc3c(C(=O)NC(C)(C)COC(=O)CCl)nn(C)c3c2)cc1Cl [QW-550] is above or exactly 60%.
T

Kindly determine if GPX4% inhibition at 5 μM recorded for COc1ccc(-c2ccc3c(C(=O)NC(C)(C)COC(=O)CCl)nn(C)c3c2)cc1 [QW-454] is above or exactly 60%.
T

Kindly determine if GPX4% inhibition at 5 μM recorded for Cn1nc(C(=O)NC(C)(C)COC(=O)CCl)c2ccc(-c3ccc(C=O)cc3)cc21 [QW-591] is above or exactly 60%.
T

Kindly determine if GPX4% inhibition at 5 μM recorded for Cn1nc(C(=O)NC(C)(C)COC(=O)CCl)c2ccc(-c3cccc(Cl)c3)cc21 [QW-458] is above or exactly 60%.
T

Kindly determine if GPX4% inhibition at 5 μM recorded for Cn1nc(C(=O)NC(C)(C)COC(=O)CCl)c2ccc(C3=CCc4ccccc43)cc21 [QW-514] is above or exactly 60%.
F

Kindly determine if GPX4% inhibition at 5 μM recorded for COc1ccc(-c2ccc3c(C(=O)NC(C)(C)COC(=O)CCl)nn(C)c3c2)cc1F [QW-567] is above or exactly 60%.
F
